Origin of the recorded values: patent EP4759814A1

Molecular target: MAT2A (Homo sapiens)
pIC50: −log10 of the molar value.
Measured Quantity: pIC50

# map each compound to its pIC50
1. Cc1ccccc1-n1c(=O)c2nccn2c2ccc(Cl)nc21
2. Cc1ncccc1-n1c(=O)c2ncc(Br)n2c2ccc(C(F)(F)F)cc21
3. Cc1cc2c(cc1C(F)(F)F)n(-c1cccnc1C)c(=O)c1nccn12 [Example 93]

1: 6.00 to 7.00; 2: 6.00 to 7.00; 3: 7.00 to 9.00

* * *

Give measured pIC50 for each item. Keep answers brief.
Biological target: MAT2A (Homo sapiens)
pIC50: −log10 of the molar value.

Some molecules with known pIC50 results, for comparison:
Fill in pIC50 for record COc1cc2c(cc1Br)n(-c1ccccc1C)c(=O)c1nccn12
6.00 to 7.00

Fill in pIC50 for record Cc1ccccc1-n1c(=O)c2nccn2c2ccc(I)cc21
7.00 to 9.00

Fill in pIC50 for record Cc1c(F)cccc1-n1c(=O)c2nccn2c2ccc(C(F)(F)F)cc21
7.00 to 9.00

# map each molecule to its pIC50
1. CC(=O)c1cnc2c(=O)n(-c3cccnc3C)c3cc(C(F)(F)F)ccc3n12
2. Cc1ccccc1-n1c(=O)c2nccn2c2ccc(C(C)C)nc21

["5.00 to 6.00", "< 5.00"]

* * *

Molecular target: MAT2A (Homo sapiens, UniProt P31153)
Sequence (P31153 whole entry): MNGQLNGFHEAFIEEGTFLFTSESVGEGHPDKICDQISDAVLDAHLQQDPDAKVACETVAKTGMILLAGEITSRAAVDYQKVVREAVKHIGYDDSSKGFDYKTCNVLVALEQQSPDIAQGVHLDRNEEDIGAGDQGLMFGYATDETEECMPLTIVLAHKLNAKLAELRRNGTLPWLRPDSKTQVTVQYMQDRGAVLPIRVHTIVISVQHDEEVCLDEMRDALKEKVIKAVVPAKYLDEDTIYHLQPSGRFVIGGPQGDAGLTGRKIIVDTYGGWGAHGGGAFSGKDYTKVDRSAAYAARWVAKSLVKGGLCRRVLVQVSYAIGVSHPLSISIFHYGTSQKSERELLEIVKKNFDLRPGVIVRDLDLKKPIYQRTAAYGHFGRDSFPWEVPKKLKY
pIC50: −log10 of the molar value.
Give measured pIC50 for each item. Keep answers brief.

Fill in pIC50 for record Cc1cc2c(cc1C(F)(F)F)n(-c1cccnc1C)c(=O)c1nccn12 (atropisomer, axis not shown; (Ra)) [Example 94]
< 5.00

Fill in pIC50 for record Cc1cccc(F)c1-n1c(=O)c2nccn2c2ccc(Cl)cc21
6.00 to 7.00

Fill in pIC50 for record Cc1ccccc1-n1c(=O)c2nccn2c2ccc(C3CC3)cc21
6.00 to 7.00

Fill in pIC50 for record CCOc1ccc2c(c1)n(-c1ccccc1C)c(=O)c1nccn12
< 5.00

Fill in pIC50 for record Cc1ncccc1-n1c(=O)c2nccn2c2cc(Cl)c(Br)cc21 (atropisomer, axis not shown; (Ra)) [Example 80]
< 5.00

Fill in pIC50 for record Cc1ccccc1-n1c(=O)c2nccn2c2ccc(C(F)(F)F)nc21
6.00 to 7.00

# map each molecule to its pIC50
1. Cc1ccccc1-n1c(=O)c2nccn2c2ccc(C(F)F)cc21
2. Cc1ccc(F)cc1-n1c(=O)c2nccn2c2ccc(Cl)cc21
3. CS(=O)(=O)Nc1cccc(-n2c(=O)c3nccn3c3ccc(Cl)cc32)c1

1: 7.00 to 9.00; 2: < 5.00; 3: 7.00 to 9.00

# map each molecule to its pIC50
1. Cc1cccc(C)c1-n1c(=O)c2nccn2c2ccc(Cl)cc21
2. Cc1ncccc1-n1c(=O)c2nccn2c2cc(Cl)c(C(F)(F)F)cc21 (atropisomer, axis not shown; (Ra)) [Example 97]
3. Cc1ncccc1-n1c(=O)c2ncc(Br)n2c2cc(Cl)c(Br)cc21

1: < 5.00; 2: < 5.00; 3: 6.00 to 7.00

# map each molecule to its pIC50
1. Cc1cn2c(n1)c(=O)n(-c1cccnc1C)c1cc(Cl)ccc12
2. Cc1c(F)cccc1-n1c(=O)c2nccn2c2ccc(Cl)cc21

7.00 to 9.00
6.00 to 7.00
